Test: chemical genetic growth profiling, strain panel (AID 1159580);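 also: tested at 20 µM; growth read once vehicle control cultures reached saturation at 30 °C; 1 = growth at the plate median or of vehicle wells; lower values mean less growth of the strain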
Settings: S. cerevisiae deletion strains, growth OD, locus YDR101C, strain arx1, stronger effect = lower value
Among all 5,500 compounds or so, about 2,000 (36%) were called active. Inconclusive results (about 18%) are left out. The list shows a part of the results.
Listed below: normalized growth values for each entry.
Give your answer as a number; write no unit.

Solved entries (count: 4):
CC(=C(CCOP(=O)(O)O)SC(=O)c1ccccc1)N(C=O)Cc1cnc(C)nc1N :: 1
CC1(C)C2CC[C@]3(C)C(C(=O)C=C4[C@@H]5C[C@@](C)(C(=O)O)CC[C@]5(C)CC[C@]43C)[C@@]2(C)CC[C@@H]1OC(=O)CCC(=O)O (stereo not given in full) :: 0.994
CC1(C)C2CC[C@]3(C)C(C(=O)C=C4[C@@H]5C[C@@](C)(C(=O)O)CC[C@]5(C)CC[C@]43C)[C@@]2(C)CC[C@@H]1O (stereo not given in full) :: 0.98
CC(C)[N+](C)(CCOC(=O)C1c2ccccc2Oc2ccccc21)C(C)C :: 0.997

query: I'd like to know its normalized growth. The molecule in question is CCc1ccc(CCOc2ccc(CC3SC(=O)NC3=O)cc2)nc1 (stereo not given)
result: 0.995

----------
Listed below: normalized growth values for each entry.
Test: chemical genetic growth profiling, strain panel (AID 1159580);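 also: tested at 20 µM; growth read once vehicle control cultures reached saturation at 30 °C; 1 = growth at the plate median or of vehicle wells; lower values mean less growth of the strain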
Settings: S. cerevisiae deletion strains, growth OD, locus YKR091W, strain srl3, stronger effect = lower value
About 2,000 (36%) of roughly 5,500 compounds were called active. Roughly 18% stayed inconclusive and do not appear here. Some of the results follow.

Solved entries (count: 10):
C[C@@H]1O[C@@H](O[C@H]2[C@@H](Oc3cc(O)c4c(c3)O[C@H](c3ccc(O)cc3)CC4=O)O[C@H](CO)[C@@H](O)[C@@H]2O)[C@H](O)[C@H](O)[C@H]1O :: 0.969 (inactive)
OC(CCN1CCCCC1)(c1ccccc1)c1ccccc1 :: 0.993 (inactive)
CCCCOc1ccc(OCCCN2CCOCC2)cc1 :: 0.992 (inactive)
CC(C)[C@H](N)C(=O)OCCOCn1cnc2c(=O)[nH]c(N)nc21 :: 1.01 (inactive)
COc1cccc([C@]2(O)CCCC[C@H]2CN(C)C)c1 :: 0.98 (inactive)
CCCCCC(=O)O[C@]1(C(C)=O)CCC2C3CCC4=CC(=O)CC[C@]4(C)C3CC[C@@]21C (some centres not stated) :: 0.99 (inactive)
COc1cc2c(cc1OC)C(=O)C(CC1CCN(Cc3ccccc3)CC1)C2 (configuration not stated) :: 0.981 (inactive)
CC(=O)O[C@@](C)(CCC=C(C)C)C1CC=C(C)CC1 (some centres not stated) :: 0.982 (inactive)
O=C1CC(c2ccc(O)c(O)c2)Oc2cc(O)cc(O)c21 (configuration not stated) :: 0.994 (inactive)
CCOC(=O)c1ncn2c1CN(C)C(=O)c1cc(F)ccc1-2 :: 1.01 (inactive)

query: I'd like to know its normalized growth. The molecule in question is O=C(/C=C/c1ccccc1)O[C@H]1C[C@@H](O)[C@]2(O)C=CO[C@@H](O[C@@H]3O[C@H](CO)[C@@H](O)[C@H](O)[C@H]3O)[C@H]12
result: 1.02 (inactive)

query: I'd like to know its normalized growth. The molecule in question is CC1(C)S[C@@H]2[C@H](NC(=O)[C@H](NC(=O)N3CCNC3=O)c3ccccc3)C(=O)N2C1C(=O)O (some centres not stated)
result: 0.974 (inactive)

query: I'd like to know its normalized growth. The molecule in question is CCCCOc1ccc(C(=O)CCN2CCCCC2)cc1
result: 0.999 (inactive)

query: I'd like to know its normalized growth. The molecule in question is CCSC(=N)N
result: 1.01 (inactive)

query: I'd like to know its normalized growth. The molecule in question is CC(=O)O[C@]1(C(C)=O)CCC2C3C[C@H](C)C4=CC(=O)CC[C@]4(C)C3CC[C@@]21C (some centres not stated)
result: 0.959 (inactive)

query: I'd like to know its normalized growth. The molecule in question is COc1ccc(C2CC(=O)c3ccc(OC)cc3O2)cc1 (configuration not stated)
result: 0.968 (inactive)

query: I'd like to know its normalized growth. The molecule in question is CO[C@H]1C[C@H](O[C@H]2[C@H](C)[C@@H](OC3O[C@H](C)C[C@H](N(C)C)[C@H]3O)[C@@H](C)C[C@]3(CO3)C(=O)[C@H](C)[C@@H](O)[C@@H](C)[C@@H](C)OC(=O)[C@@H]2C)O[C@@H](C)[C@@H]1O (some centres not stated)
result: 1 (inactive)
